// provenance: patent US20230240966

# TESTED_SYSTEM: T1, Suc-AAPI-pNA
# T1 chain: AAPI
# TEST_CONDITIONS: scale: relative to the substrate with the highest activity
PROPERTY_NAME: relative activity (initial increase in OD405)

Exercise: What value of measured relative activity (initial increase in OD405) is listed for Subtilisin Carlsberg from Bacillus licheniformis (protein) AQTVPYGIPLIKADKVQAQGFKGANVKVAVLDTGIQASHPDLNVVGGASFVAGEAYNTDGNGHGTHVAGTVAALDNTTGVLGVAPSVSLYAVKVLNSSGSGSYSGIVSGIEWATTNGMDVINMSLGGASGSTAMKQAVDNAYARGVVVVAAAGNSGSSGNTNTIGYPAKYDSVIAVGAVDSNSNRASFSSVGAELEVMAPGAGVYSTYPTNTYATLNGTSMASPHVAGAAALILSKHPNLSASQVRNRLSSTATYLGSSFYYGKGLINVEAAAQ ?
Key: 0.0005
